Settings: siRNA; note: test system not given here
HELM strings list units from the 5' end as sugar, base in round brackets, then linkage (d deoxyribose, r ribose, m 2'-O-methyl, p phosphodiester). Strings are as the collection lists them, not checked against the first reports. ss, as = sense and antisense strand; [hna] = hexitol nucleic acid; [s4r] = 4'-thioribose; [fl2r] = 2'-fluoro
READOUT NAME: target mRNA knockdown

{"SUBSTANCE": "RNA1{r(G)p.r(A)p.r(C)p.r(G)p.[hna](U)p.r(A)p.r(A)p.[hna](A)p.r(C)p.r(G)p.[hna](G)p.r(C)p.r(C)p.[hna](A)p.r(C)p.r(A)p.r(A)p.r(G)p.r(U)p.[hna](U)p.d(T)}|RNA2{r(A)p.r(C)p.r(U)p.r(U)p.r(G)p.r(U)p.r(G)p.r(G)p.r(C)p.r(C)p.r(G)p.r(U)p.r(U)p.r(U)p.r(A)p.r(C)p.r(G)p.[hna](U)p.[hna](C)p.[hna](G)p.d(T)}$$$RNA1{StrandType:ss}|RNA2{StrandType:as}$", "target mRNA knockdown": "48.7%"}
{"SUBSTANCE": "RNA1{r(U)p.r(U)p.r(C)p.[fl2r](U)p.r(A)p.r(A)p.r(C)p.r(C)p.r(G)p.r(G)p.r(G)p.r(C)p.r(A)p.r(G)p.r(C)p.r(U)p.r(U)p.r(C)p.r(U)p.r(T)p.r(T)}|RNA2{r(A)p.r(G)p.r(A)p.r(A)p.r(G)p.r(C)p.r(U)p.r(G)p.r(C)p.r(C)p.r(C)p.r(G)p.r(G)p.r(U)p.[fl2r](U)p.r(A)p.r(G)p.r(A)p.r(A)p.r(T)p.r(T)}$$$RNA1{StrandType:ss}|RNA2{StrandType:as}$", "target mRNA knockdown": "72%"}
{"SUBSTANCE": "RNA1{m(U)p.r(A)p.r(G)p.r(C)p.m(C)p.r(A)p.r(G)p.r(A)p.r(G)p.r(C)p.m(C)p.r(A)p.r(A)p.r(A)p.r(G)p.r(A)p.r(A)p.r(G)p.r(C)p.r(T)p.r(T)}|RNA2{r(G)p.r(C)p.r(U)p.r(U)p.r(C)p.r(U)p.r(U)p.r(U)p.r(G)p.m(G)p.r(C)p.r(U)p.r(C)p.r(U)p.r(G)p.m(G)p.m(C)p.m(U)p.r(A)p.r(T)p.r(T)}$$$RNA1{StrandType:ss}|RNA2{StrandType:as}$", "target mRNA knockdown": "85%"}
{"SUBSTANCE": "RNA1{[s4r](A)p.[s4r](A)p.r(A)p.r(C)p.r(A)p.r(U)p.r(G)p.r(C)p.r(A)p.r(G)p.r(A)p.r(A)p.r(A)p.r(A)p.r(U)p.r(G)p.r(C)p.r(U)p.r(G)p.r(T)p.r(T)}|RNA2{[s4r](C)p.[s4r](A)p.r(G)p.r(C)p.r(A)p.r(U)p.r(U)p.r(U)p.r(U)p.r(C)p.r(U)p.r(G)p.r(C)p.r(A)p.r(U)p.r(G)p.r(U)p.[s4r](U)p.[s4r](U)p.r(T)p.r(T)}$$$RNA1{StrandType:ss}|RNA2{StrandType:as}$", "target mRNA knockdown": "44.8%"}

Memo: RNA1{r(G)p.r(A)p.r(C)p.r(G)p.r(U)p.r(A)p.r(A)p.r(A)p.r(C)p.r(G)p.r(G)p.r(C)p.r(C)p.r(A)p.r(C)p.r(A)p.r(A)p.r(G)p.[hna](U)p.[hna](U)p.r(C)}|RNA2{[fl2r](A)p.m(C)p.[fl2r](U)p.m(U)p.[fl2r](G)p.m(U)p.[fl2r](G)p.m(G)p.[fl2r](C)p.m(C)p.[fl2r](G)p.m(U)p.[fl2r](U)p.m(U)p.[fl2r](A)p.m(C)p.[fl2r](G)p.m(U)p.[fl2r](C)p.m(G)p.[fl2r](C)}$$$RNA1{StrandType:ss}|RNA2{StrandType:as}$ , reported target mRNA knockdown: 45.8%

====

Item-by-item account of target mRNA knockdown
Conditions: siRNA
HELM strings list units from the 5' end as sugar, base in round brackets, then linkage (d deoxyribose, r ribose, m 2'-O-methyl, p phosphodiester). Strings are as the collection lists them, not checked against the first reports. ss, as = sense and antisense strand; [s4r] = 4'-thioribose
Reply numerically in %, unit not repeated.

{"SUBSTANCE": "RNA1{[s4r](C)p.[s4r](G)p.[s4r](U)p.[s4r](A)p.r(C)p.r(G)p.r(C)p.r(G)p.r(G)p.r(A)p.r(A)p.r(U)p.r(A)p.r(C)p.r(U)p.[s4r](U)p.[s4r](C)p.[s4r](G)p.[s4r](A)p.r(T)p.r(T)}|RNA2{[s4r](U)p.[s4r](C)p.r(G)p.r(A)p.r(A)p.r(G)p.r(U)p.r(A)p.r(U)p.r(U)p.r(C)p.r(C)p.r(G)p.r(C)p.r(G)p.r(U)p.r(A)p.[s4r](C)p.[s4r](G)p.r(T)p.r(T)}$$$RNA1{StrandType:ss}|RNA2{StrandType:as}$", "QUANTITATIVE READOUT": 87.7}

# ---- query substance ----
Memo: RNA1{[s4r](C)p.[s4r](G)p.[s4r](U)p.[s4r](A)p.[s4r](C)p.[s4r](G)p.r(C)p.r(G)p.r(G)p.r(A)p.r(A)p.r(U)p.r(A)p.r(C)p.r(U)p.r(U)p.r(C)p.r(G)p.r(A)p.r(T)p.r(T)}|RNA2{r(U)p.r(C)p.r(G)p.r(A)p.r(A)p.r(G)p.r(U)p.r(A)p.r(U)p.r(U)p.r(C)p.r(C)p.r(G)p.[s4r](C)p.[s4r](G)p.[s4r](U)p.[s4r](A)p.[s4r](C)p.[s4r](G)p.r(T)p.r(T)}$$$RNA1{StrandType:ss}|RNA2{StrandType:as}$ , reported target mRNA knockdown: 47.8

====

Conditions: siRNA
HELM strings list units from the 5' end as sugar, base in round brackets, then linkage (d deoxyribose, r ribose, m 2'-O-methyl, p phosphodiester). Strings are as the collection lists them, not checked against the first reports. ss, as = sense and antisense strand; [fl2r] = 2'-fluoro
READOUT NAME: target mRNA knockdown (%)
Reply numerically in %, unit not repeated.

{"SUBSTANCE": "RNA1{r(G)p.[fl2r](A)p.r(A)p.r(A)p.[fl2r](C)p.[fl2r](U)p.r(G)p.r(G)p.[fl2r](U)p.[fl2r](A)p.[fl2r](C)p.[fl2r](U)p.[fl2r](U)p.[fl2r](U)p.[fl2r](C)p.[fl2r](C)p.[fl2r](C)p.[fl2r](C)p.[fl2r](C)p.r(T)p.r(T)}|RNA2{r(G)p.r(G)p.r(G)p.r(G)p.r(G)p.r(A)p.r(A)p.r(A)p.r(G)p.r(U)p.r(A)p.r(C)p.r(C)p.r(A)p.r(G)p.r(U)p.r(U)p.r(U)p.r(C)p.r(T)p.r(T)}$$$RNA1{StrandType:ss}|RNA2{StrandType:as}$", "target mRNA knockdown [%]": 60}

Memo: RNA1{r(G)p.r(G)p.r(A)p.r(A)p.r(G)p.r(U)p.r(C)p.r(C)p.m(A)p.r(C)p.r(C)p.r(U)p.r(U)p.r(C)p.r(U)p.r(C)p.r(C)p.r(G)p.r(A)p.r(T)p.r(T)}|RNA2{r(U)p.r(C)p.r(G)p.r(G)p.r(A)p.r(G)p.r(A)p.r(A)p.r(G)p.r(G)p.m(U)p.r(G)p.r(G)p.r(A)p.r(C)p.r(U)p.r(U)p.r(C)p.r(C)p.r(T)p.r(T)}$$$RNA1{StrandType:ss}|RNA2{StrandType:as}$ , reported target mRNA knockdown: 54

====

Item-by-item account of target mRNA knockdown
Conditions: siRNA
HELM strings list units from the 5' end as sugar, base in round brackets, then linkage (d deoxyribose, r ribose, m 2'-O-methyl, p phosphodiester). Strings are as the collection lists them, not checked against the first reports. ss, as = sense and antisense strand; [lna] = locked nucleic acid (LNA); [una] = unlocked nucleic acid
Reply numerically in %, unit not repeated.

Examples from the recorded data:
{"SUBSTANCE": "RNA1{r(G)p.r(G)p.r(A)p.r(C)p.r(A)p.r(U)p.r(U)p.r(C)p.r(A)p.r(G)p.r(A)p.r(A)p.r(C)p.r(A)p.r(A)p.r(G)p.r(A)p.r(A)p.r(A)p.[una](U)p.[una](U)}|RNA2{r(U)p.r(U)p.r(U)p.r(C)p.r(U)p.r(U)p.r(G)p.r(U)p.r(U)p.[una](C)p.r(U)p.r(G)p.r(A)p.r(A)p.r(U)p.r(G)p.r(U)p.r(C)p.r(C)p.[una](U)p.[una](U)}$$$RNA1{StrandType:ss}|RNA2{StrandType:as}$", "target mRNA knockdown / %": 17}
{"SUBSTANCE": "RNA1{r(G)p.r(A)p.r(A)p.r(G)p.r(A)p.r(G)p.r(C)p.r(C)p.m(U)p.r(A)p.m(C)p.r(A)p.m(C)p.r(A)p.r(A)p.r(C)p.r(C)p.r(C)p.r(U)p.r(T)p.r(T)}|RNA2{r(A)p.r(G)p.r(G)p.r(G)p.r(U)p.m(U)p.r(G)p.m(U)p.r(G)p.m(U)p.r(A)p.r(G)p.r(G)p.r(C)p.r(U)p.r(C)p.r(U)p.r(U)p.r(C)p.r(T)p.r(T)}$$$RNA1{StrandType:ss}|RNA2{StrandType:as}$", "target mRNA knockdown / %": 75}

# ---- query substance ----
Memo: RNA1{r(C)p.r(U)p.r(U)p.r(A)p.r(C)p.r(G)p.r(C)p.r(U)p.r(G)p.r(A)p.r(G)p.r(U)p.r(A)p.r(C)p.r(U)p.r(U)p.r(C)p.r(G)p.r(A)p.r(T)p.r(T)}|RNA2{r(T)p.r(C)p.[lna](G)p.r(A)p.r(A)p.r(G)p.r(U)p.r(A)p.r(C)p.r(U)p.r(C)p.r(A)p.r(G)p.r(C)p.r(G)p.r(U)p.r(A)p.r(A)p.r(G)p.[lna](T)p.[lna](T)}$$$RNA1{StrandType:ss}|RNA2{StrandType:as}$ , reported target mRNA knockdown: 90
